Just for reference, the supplement of paper PMC10567573 is where these values come from.

B1: MIA2 (parent)
chain: SVIEPVQESSFRSRKIAVEDENDL

# Variants of: B1
# ASSAY_TEXT: protein stability index of a GFP-peptide fusion (GPS, HEK-293T) (PSI 1-6); higher = more stable;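 also: lentivirally expressed fusions sorted by FACS into six bins by GFP to DsRed ratio, PSI derived from sequencing read proportions per bin multiplied by bin number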
# STATED_CONDITIONS: c terminus: a fixed tail appended
METRIC_NAME: protein stability index

Consider the reported protein stability index for these variants:
SVIEPVQESSFRSRKIAVEDENSL [D23S] ... 5.2
SVIEPVQESSFRSRKIGVEDENDL [A17G] ... 5.14

Given item SMIEPVQESSFRSRKIAVEDENDL [V2M] , the value recorded as its protein stability index is 5.22

Given item SVIEPWQESSFRSRKIAVEDENDL [V6W] , the value recorded as its protein stability index is 4.53

Given item SVIEPVQESSFRSDKIAVEDENDL [R14D] , the value recorded as its protein stability index is 5.75

Given item SVIEPVQESSFRSRKIAVEDCNDL [E21C] , the value recorded as its protein stability index is 4.32

Given item SVIEPVQESSHRSRKIAVEDENDL [F11H] , the value recorded as its protein stability index is 5.37

Given item SVIEPVQESSFRSRKIAVEDENLL [D23L] , the value recorded as its protein stability index is 4.63

Given item SVIEPVQEKSFRSRKIAVEDENDL [S9K] , the value recorded as its protein stability index is 5.44

Given item SVIEPFQESSFRSRKIAVEDENDL [V6F] , the value recorded as its protein stability index is 4.94

Given item FVIEPVQESSFRSRKIAVEDENDL [S1F] , the value recorded as its protein stability index is 2.93

Given item SVIEPVQESIFRSRKIAVEDENDL [S10I] , the value recorded as its protein stability index is 4.28

Given item SVIEPVQESSFRSRNIAVEDENDL [K15N] , the value recorded as its protein stability index is 5.67

Given item SVIEPVQESQFRSRKIAVEDENDL [S10Q] , the value recorded as its protein stability index is 5.67

Given item SVIEPVQPSSFRSRKIAVEDENDL [E8P] , the value recorded as its protein stability index is 5.27

Given item SVIEPVQESSFRSRKIAVEDHNDL [E21H] , the value recorded as its protein stability index is 4.63

Given item SVIEDVQESSFRSRKIAVEDENDL [P5D] , the value recorded as its protein stability index is 4.88

Given item SVIEPVQESLFRSRKIAVEDENDL [S10L] , the value recorded as its protein stability index is 4.72

Given item SVIEPVQESSFRSRKIANEDENDL [V18N] , the value recorded as its protein stability index is 5.1

Given item SVIEPAQESSFRSRKIAVEDENDL [V6A] , the value recorded as its protein stability index is 5.31

Given item SVIEMVQESSFRSRKIAVEDENDL [P5M] , the value recorded as its protein stability index is 4.14
